- targetOrSystem: Voltage-gated potassium channel subunit beta-2 (Rattus norvegicus)
- methodNotes: enhancers of rat Kvbeta2 NADPH turnover – biochemical, NADPH fluorescence, primary screen (AID 623);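 note: fluorescence intensity change per second fitted from 20 to 320 s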
- conditionNotes: Recombinant KvBeta, NADPH fluorescence decrease slope, 10 min; at 10 µM; stronger effect = lower value
Recorded NADPH fluorescence slope values for a group of molecules are listed next.
Give the figure only, with no unit attached.

- molecule: "CCN(CC)C(=O)CSc1nnc([C@@H](N)Cc2ccccc2)o1"
  targetOrSystem: "Voltage-gated potassium channel subunit beta-2 (Rattus norvegicus)"
  measuredAttribute: "NADPH fluorescence slope"
  observedValue: "1.4e-05"
- molecule: "Cc1ccc(-c2noc(C3CCCN(C(=O)c4ccccc4)C3)n2)o1 (stereo unspecified)"
  targetOrSystem: "Voltage-gated potassium channel subunit beta-2 (Rattus norvegicus)"
  measuredAttribute: "NADPH fluorescence slope"
  observedValue: "-1.7e-05"
- molecule: "CCOC(=O)C1CCN(c2c(N3CCCC(C(=O)OCC)C3)c(=O)c2=O)CC1 (stereo unspecified)"
  targetOrSystem: "Voltage-gated potassium channel subunit beta-2 (Rattus norvegicus)"
  measuredAttribute: "NADPH fluorescence slope"
  observedValue: "9.3e-06"
- molecule: "COc1ccccc1N1CCN(C(=O)N2CCOCC2)CC1"
  targetOrSystem: "Voltage-gated potassium channel subunit beta-2 (Rattus norvegicus)"
  measuredAttribute: "NADPH fluorescence slope"
  observedValue: "-6.2e-05"
- molecule: "O=C(Nc1ccccc1C(=O)N1CCOCC1)C1COc2ccccc2O1 (stereo unspecified)"
  targetOrSystem: "Voltage-gated potassium channel subunit beta-2 (Rattus norvegicus)"
  measuredAttribute: "NADPH fluorescence slope"
  observedValue: "-1.5e-05"
- molecule: "COc1ccccc1CC(=O)NCc1ccc2c(c1)OCO2"
  targetOrSystem: "Voltage-gated potassium channel subunit beta-2 (Rattus norvegicus)"
  measuredAttribute: "NADPH fluorescence slope"
  observedValue: "-5.4e-05"
- molecule: "COc1cccc(C2CC(c3c(Cl)cccc3Cl)n3nc(N)nc3N2)c1 (stereo unspecified)"
  targetOrSystem: "Voltage-gated potassium channel subunit beta-2 (Rattus norvegicus)"
  measuredAttribute: "NADPH fluorescence slope"
  observedValue: "-1.9e-05"
- molecule: "Cc1nn(-c2ccc(F)cc2)c2sc(C(=O)O)cc12"
  targetOrSystem: "Voltage-gated potassium channel subunit beta-2 (Rattus norvegicus)"
  measuredAttribute: "NADPH fluorescence slope"
  observedValue: -0.00011
- molecule: "CCOC(=O)c1oc2ccccc2c1NC(=O)c1cccc(OC)c1OC"
  targetOrSystem: "Voltage-gated potassium channel subunit beta-2 (Rattus norvegicus)"
  measuredAttribute: "NADPH fluorescence slope"
  observedValue: "-1.9e-05"
- molecule: "Cc1cc(C)nc(NC(=O)c2cnc3sccn3c2=O)n1"
  targetOrSystem: "Voltage-gated potassium channel subunit beta-2 (Rattus norvegicus)"
  measuredAttribute: "NADPH fluorescence slope"
  observedValue: "-3.1e-05"

Pending molecule:
## Input Enter NADPH fluorescence slope (test system Voltage-gated potassium channel subunit beta-2 (Rattus norvegicus)) for CCN1CCCC1CNC(=O)CS(=O)(=O)Cc1nc(-c2ccccc2C)oc1C (stereo unspecified)
## Output -3e-05

---

- targetOrSystem: Alpha-2C adrenergic receptor (Homo sapiens)
- methodNotes: compounds altering alpha2C-coupled GIRK flux – cell-based, HEK293 alpha2C/GIRK1/2, thallium flux, primary screen (AID 624);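 note: slope of fluorescence ratio to pre-addition baseline per second over 15 to 24 s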
- conditionNotes: thallium flux BTC fluorescence, at 10 µM, actives lie on both sides
measuredAttribute: slope
Give the figure only, with no unit attached.

- compound: "COc1ccc(-n2ccnc2SCC(=O)NCc2ccc3c(c2)OCO3)cc1"
  observedValue: 0.006

## Input Enter slope (test system Alpha-2C adrenergic receptor (Homo sapiens)) for c1ccc(CC2CCN(c3nc4ccccc4n4nnnc34)CC2)cc1
## Output 0.00583

---

- methodNotes: inhibitors of TNFa-induced NFkB p65 translocation, primary screen, imaging, HUVEC, MLSMR starter and 10KST1 sets (AID 438);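 note: compound added about 3h40 before a 20 min TNFalpha stimulation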
- conditionNotes: HUVEC TNFa-induced p65 nuclear translocation; measured here: nuclei count (cytotoxicity indicator), at 2.08 µM
Recorded cell count values for a group of compounds are listed next.
Give the figure only, with no unit attached.

- compound: "COc1ccc(S(=O)(=O)N(C)C2CCN(C)CC2)cc1"
  cell count: 843
- compound: "Cc1ccc2[nH]c(=O)c(CN(CCCN3CCOCC3)C(=O)Nc3cccc(Cl)c3)cc2c1"
  cell count: 724
- compound: "COC(=O)C(C)Sc1nnc2n(-c3cccc(C)c3)c(=O)c3c4c(sc3n12)CCCC4 (stereo unspecified)"
  cell count: 660
- compound: "Cn1c(=O)c(C(=O)Nc2cccnc2)c(O)c2ccccc21"
  cell count: 632
- compound: "N/C(=N/O)c1nc(N2CCCCC2)nc(N2CCCCC2)n1"
  cell count: 640
- compound: "OC(CN1CCN(c2ccccn2)CC1)Cn1c2ccccc2c2ccccc21 (stereo unspecified)"
  cell count: 386

## Input Quote cell count reported for CCc1ccc(N2CC(C(=O)OCC(=O)Nc3cc(C)on3)CC2=O)cc1 (stereo unspecified) please.
## Output 465

## Input Quote cell count reported for c1ccc(CN2CCN(CCCNc3ccc4nnc(-c5ccccc5)n4n3)CC2)cc1 please.
## Output 485

## Input Quote cell count reported for O=C(Nc1ccc(-c2noc(-c3cccs3)n2)cc1)c1cccnc1 please.
## Output 595

## Input Quote cell count reported for Cn1c(SCC(=O)Nc2cccc3ccccc23)nc(O)cc1=O please.
## Output 548

## Input Quote cell count reported for O=C(O)CCc1ccc(-c2ccc(F)cc2)n1CC(=O)O please.
## Output 411

---

Recorded inhibition values for a group of compounds are listed next.
- methodNotes: blockers of RIG-like receptor reporter activation – cell-based, Sendai virus stimulus, luciferase, 10K MLSCN set, TLR/RLR signaling modifier project, primary screen (AID 602276);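 note: firefly luciferase from ISG56 promoter only with Renilla not read in this screen; 0% = Sendai virus plus DMSO and 100% = medium plus DMSO without virus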
- conditionNotes: HEK293 RL24 IRF3 luciferase reporter, at 10 µM, stronger effect = higher value
Write the number in % without appending the unit.

Below: 5 compounds and their reported inhibition.
- compoundStructure: "O=C1c2ccccc2C(=O)N1C/C=C/c1ccccc1"
  observedValue: 21.6
- compoundStructure: "CCn1c(SCC(=O)c2ccc(C)cc2)nnc1-c1ccoc1C"
  observedValue: -8.3
- compoundStructure: "O=c1[nH]c(N2CCCCC2)nc2c1CCCC2"
  observedValue: 17
- compoundStructure: "CN(c1ccccc1)S(=O)(=O)c1ccc(C(=O)OCC(=O)NCc2ccco2)cc1"
  observedValue: -14.7
- compoundStructure: "Cc1ccccc1CSc1nnc(C)c(=O)[nH]1"
  observedValue: 12.3

Pending compound:
## Input Quote inhibition reported for COCC(=O)N(C)c1nnc(-c2ccccn2)s1 please.
## Output -7.53

---

- methodNotes: TLR3 IRF3 reporter activation blockers – cell-based, poly I:C stimulus, luciferase, 10K MLSCN set, primary screen (AID 602277)
- conditionNotes: HEK293-TLR3 RL24 IRF3 luciferase reporter, at 10 µM
Calls of active or inactive are those of the source.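 Rule for the calls: active = inhibition of the reporter signal at or above 50%; inactive = inhibition below 50%.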
One label from this list, please: active, inactive

The examples below pair each entry with its known result.
- compound: "CCOC(=O)CN(C(=O)CSc1nnc(-c2ccncc2)n1CCCN(C)C)c1ccccc1"
  groupLabel: "inactive"
- compound: "COC(=O)c1ccsc1NC(=O)CN1C(=O)CCC1=O"
  groupLabel: "inactive"
- compound: "c1ccc2c(c1)nc(NCCN1CCOCC1)c1nncn12"
  groupLabel: "inactive"
- compound: "O=c1c2[nH]c3ccccc3c2ncn1CCCn1ccnc1"
  groupLabel: "active"

## Input Recorded call for Cc1ccc(S(=O)(=O)N2CCC(C(=O)NCCN3CCCCCC3)CC2)cc1 ?
## Output inactive

## Input Recorded call for COCCn1nnnc1C(c1ccccc1OC)N1CCc2ccccc2C1 (stereo unspecified) ?
## Output inactive

---

- methodNotes: blockers of RIG-like receptor reporter activation – cell-based, Sendai virus stimulus, luciferase, 10K MLSCN set, TLR/RLR signaling modifier project, primary screen (AID 602276);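 note: firefly luciferase from ISG56 promoter only with Renilla not read in this screen; 0% = Sendai virus plus DMSO and 100% = medium plus DMSO without virus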
- conditionNotes: HEK293 RL24 IRF3 luciferase reporter, at 10 µM, stronger effect = higher value
Recorded inhibition values for a group of molecules are listed next.
Write the number in % without appending the unit.

Below: 6 molecules and their reported inhibition.
- molecule: "O=C(Nc1ccc2snnc2c1)N1CCSCC1"
  inhibition / %: -5.1
- molecule: "CCOC(=O)C1=C(C)N(C)C(=O)NC1c1cccc(O)c1 (stereo unspecified)"
  inhibition / %: 9.66
- molecule: "CSCCC(NC(=O)c1occc1C)C(=O)O (stereo unspecified)"
  inhibition / %: 7.31
- molecule: "Cn1c(C(=O)NCCN2CCN(c3ccccc3F)CC2)cc2c(=O)n(C)c3ccccc3c21"
  inhibition / %: 4.48
- molecule: "O=C(Nc1cnn(Cc2ccc(Cl)cc2Cl)c1)c1noc2c1CCCC2"
  inhibition / %: -3.18
- molecule: "Nc1ncnc2nc(Sc3ccc(Cl)cc3)[nH]c12"
  inhibition / %: 10.1

## Input Quote inhibition reported for COc1ccc(CCNc2nc(N3CCOCC3)nc(N3CCOCC3)n2)cc1OC please.
## Output 15.3

## Input Quote inhibition reported for COc1cc2c(=O)n(Cc3ccccc3)c(=O)n(CC(=O)NCc3ccco3)c2cc1OC please.
## Output 23.8

## Input Quote inhibition reported for O=C(OCC#CCSc1nc2ccccc2s1)c1ccco1 please.
## Output -14.4

## Input Quote inhibition reported for CC(NS(=O)(=O)c1ccccc1)C(c1cccs1)N1CCN(C)CC1 (stereo unspecified) please.
## Output 20.5

## Input Quote inhibition reported for Cc1csc2ncc(C(=O)Nc3ccccc3Cl)c(=O)n12 please.
## Output -29

## Input Quote inhibition reported for O=C(Nc1nc2c(s1)CCc1ccccc1-2)c1cccs1 please.
## Output 12.8
